The origin of these recorded values is the NIST ThermoML archive (doi:10.1016/j.jct.2013.12.025).

- Condition Parameters: 298.15 K; 101 kPa; Liquid; Vibrating tube method
So I've got a bunch of compounds here, and I need their mass density values.
Reply numerically in kg/m3, unit not repeated.

# input compound: `Fc1ccccc1` ; wanted: its mass density
1019.07

# input compound: `CCc1ccccc1` ; wanted: its mass density
862.58

# input compound: `COc1ccccc1` ; wanted: its mass density
989.32

# input compound: `Clc1ccccc1` ; wanted: its mass density
1101.16

# input compound: `O=[N+]([O-])c1ccccc1` ; wanted: its mass density
1198.2

# input compound: `C=C[Si](C)(C)O[Si](C)(C)C=C` ; wanted: its mass density
808
